Target: hERG (Homo sapiens, UniProt Q12809)
Sequence (Q12809 whole entry): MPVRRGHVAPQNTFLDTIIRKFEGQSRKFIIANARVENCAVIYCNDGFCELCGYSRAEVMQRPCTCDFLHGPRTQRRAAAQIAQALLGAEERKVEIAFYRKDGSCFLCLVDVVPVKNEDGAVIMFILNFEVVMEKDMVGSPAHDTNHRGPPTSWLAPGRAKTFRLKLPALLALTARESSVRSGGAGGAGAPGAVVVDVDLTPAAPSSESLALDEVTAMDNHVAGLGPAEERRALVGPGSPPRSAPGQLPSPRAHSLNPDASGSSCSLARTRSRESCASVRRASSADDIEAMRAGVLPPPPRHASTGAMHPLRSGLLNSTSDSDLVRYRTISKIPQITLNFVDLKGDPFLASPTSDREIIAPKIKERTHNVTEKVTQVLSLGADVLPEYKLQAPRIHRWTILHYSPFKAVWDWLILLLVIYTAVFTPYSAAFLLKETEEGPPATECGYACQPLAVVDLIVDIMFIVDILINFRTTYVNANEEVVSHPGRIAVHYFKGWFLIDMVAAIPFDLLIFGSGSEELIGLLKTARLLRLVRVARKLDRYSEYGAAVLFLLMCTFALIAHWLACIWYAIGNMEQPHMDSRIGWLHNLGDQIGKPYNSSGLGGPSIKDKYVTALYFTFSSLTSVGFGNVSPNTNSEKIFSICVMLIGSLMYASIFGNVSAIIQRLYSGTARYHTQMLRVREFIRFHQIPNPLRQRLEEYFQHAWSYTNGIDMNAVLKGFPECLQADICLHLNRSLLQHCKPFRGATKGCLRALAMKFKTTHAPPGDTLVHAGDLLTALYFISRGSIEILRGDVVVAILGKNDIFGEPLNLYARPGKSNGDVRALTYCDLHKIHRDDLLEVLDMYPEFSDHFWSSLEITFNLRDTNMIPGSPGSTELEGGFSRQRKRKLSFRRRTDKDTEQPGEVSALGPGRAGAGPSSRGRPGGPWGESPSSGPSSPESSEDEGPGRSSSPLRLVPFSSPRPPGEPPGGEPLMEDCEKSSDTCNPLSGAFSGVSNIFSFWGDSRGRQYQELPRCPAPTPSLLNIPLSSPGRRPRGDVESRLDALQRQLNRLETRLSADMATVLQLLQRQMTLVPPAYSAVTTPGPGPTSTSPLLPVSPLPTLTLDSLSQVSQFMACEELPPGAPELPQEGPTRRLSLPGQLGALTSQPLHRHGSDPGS
Test: Inhibition of human ERG at 10 uM
ATTRIBUTE MEASURED: inhibition at 10 µM (%)

[[record]]
compound = "COc1cc(/C=C2\\CCCN3C2=NOC[C@@H](O)[C@@H]3c2cc(F)cc(F)c2)ccc1-n1cnc(C)c1"
system_tested = "hERG (Homo sapiens, UniProt Q12809)"
units = "%"
readout_value = 55

[[record]]
compound = "COc1cc(/C=C2\\CCCN3CCC(c4cc(F)c(F)c(F)c4)ON=C23)ccc1-n1cnc(C)c1 (stereo not given)"
system_tested = "hERG (Homo sapiens, UniProt Q12809)"
units = "%"
readout_value = 89

[[record]]
compound = "COc1cc(/C=C2\\CCCN3C2=NOCC[C@@H]3c2cc(F)cc(F)c2)ccc1-n1cnc(C)c1"
system_tested = "hERG (Homo sapiens, UniProt Q12809)"
units = "%"
readout_value = 49

[[record]]
compound = "COc1cc(/C=C2\\CCCN3C2=NOCC[C@@H]3c2cc(F)c(F)c(F)c2)ccc1-n1cnc(C)c1"
system_tested = "hERG (Homo sapiens, UniProt Q12809)"
units = "%"
readout_value = 33

[[record]]
compound = "COc1cc(/C=C2\\CCCN3CCC(c4ccc(F)cc4)ON=C23)ccc1-n1cnc(C)c1 (stereo not given)"
system_tested = "hERG (Homo sapiens, UniProt Q12809)"
units = "%"
readout_value = 93


* * *

Target: Gamma-secretase (Homo sapiens) (UniProt Q96BI3+Q9NZ42+Q8WW43+P49768+Q92542+P49810)
Experiment: Inhibition of gamma secretase (unknown origin) assessed as ratio of Abeta to Abeta42 level
Assay type: protein-complex assay
ATTRIBUTE MEASURED: Ratio

[[record]]
compound = "COc1cc(/C=C2\\CCCN3CCC(c4cc(F)cc(Cl)c4)ON=C23)ccc1-n1cnc(C)c1 (stereo not drawn)"
attribute_measured = "Ratio"
readout_value = 262

[[record]]
compound = "COc1cc(/C=C2\\CCCN3C2=NOC(C)CC3c2cc(F)c(F)c(F)c2)ccc1-n1cnc(C)c1 (mixture of isomers)"
attribute_measured = "Ratio"
readout_value = 480

[[record]]
compound = "COc1cc(/C=C2\\CCCN3C2=NOCC[C@@H]3c2cc(F)cc(Cl)c2)ccc1-n1cnc(C)c1"
attribute_measured = "Ratio"
readout_value = 480

[[record]]
compound = "COc1cc(/C=C2\\CCCN3C2=NOCC[C@@H]3c2cc(F)cc(F)c2)ccc1-n1cnc(C)c1"
attribute_measured = "Ratio"
readout_value = 392

[[record]]
compound = "COc1cc(/C=C2\\CCCN3C2=NOCC[C@@H]3c2ccc(F)cc2)ccc1-n1cnc(C)c1"
attribute_measured = "Ratio"
readout_value = 409

[[record]]
compound = "COc1cc(/C=C2\\CCCN3CCC(c4cc(F)c(F)c(F)c4)ON=C23)ccc1-n1cnc(C)c1 (stereo not drawn)"
attribute_measured = "Ratio"
readout_value = 364

[[record]]
compound = "CCCO[C@@H]1CON=C2/C(=C/c3ccc(-n4cnc(C)c4)c(OC)c3)CCCN2[C@H]1c1cc(F)cc(F)c1"
attribute_measured = "Ratio"
readout_value = 16

[[record]]
compound = "COc1cc(/C=C2\\CCCN3CCC(c4ccc(F)cc4)ON=C23)ccc1-n1cnc(C)c1 (stereo not drawn)"
attribute_measured = "Ratio"
readout_value = 465


The values you see were collected from ChEMBL document CHEMBL2311347.
